System: DNA of tumor sarcoma 180 (S-180)
Assay: Influence on methylation of DNA of tumor sarcoma 180 in vitro (5-MC content)
Format: cell-based
Conditions: 3 × 10^−6 M compound, 24 h at 37 °C; reduction of 5-MC content vs S-180 control; read-out: Inhibition of the Level of DNA Methylation

{"Compound": "c1coc(-c2nc3sc4c(N5CCCCC5)ncnc4c3c3c2CCCC3)c1", "Tested System": "DNA of tumor sarcoma 180 (S-180)", "inhibition at 3 µM / %": 40.6}
{"Compound": "CC1CCN(c2ncnc3c2sc2nc(-c4ccco4)c4c(c23)CCCC4)CC1", "Tested System": "DNA of tumor sarcoma 180 (S-180)", "inhibition at 3 µM / %": 60.9}
{"Compound": "CC(C)Cc1nc2oc3c(NCCCO)ncnc3c2c2c1COC(C)(C)C2", "Tested System": "DNA of tumor sarcoma 180 (S-180)", "inhibition at 3 µM / %": 18.8}
{"Compound": "CCN(CC)CCNc1ncnc2c1oc1nc(C(C)C)c3c(c12)CC(C)(C)OC3", "Tested System": "DNA of tumor sarcoma 180 (S-180)", "inhibition at 3 µM / %": 42.2}
{"Compound": "CC(C)c1nc2oc3c(NCCN4CCOCC4)ncnc3c2c2c1COC(C)(C)C2", "Tested System": "DNA of tumor sarcoma 180 (S-180)", "inhibition at 3 µM / %": 48.4}
{"Compound": "CC(C)c1nc2sc3c(NCC4CCCO4)ncnc3c2c2c1COC(C)(C)C2 (stereo not drawn)", "Tested System": "DNA of tumor sarcoma 180 (S-180)", "inhibition at 3 µM / %": 37.5}
{"Compound": "CC(C)c1nc2oc3c(NCc4cccnc4)ncnc3c2c2c1COC(C)(C)C2", "Tested System": "DNA of tumor sarcoma 180 (S-180)", "inhibition at 3 µM / %": 34.4}
{"Compound": "CC(C)c1nc2oc3c(NCCN(C)C)ncnc3c2c2c1COC(C)(C)C2", "Tested System": "DNA of tumor sarcoma 180 (S-180)", "inhibition at 3 µM / %": 62.5}
{"Compound": "c1coc(-c2nc3sc4c(NCC5CCCO5)ncnc4c3c3c2CCCC3)c1 (stereo not drawn)", "Tested System": "DNA of tumor sarcoma 180 (S-180)", "inhibition at 3 µM / %": 89.1}
